experiment: AUC (0 to infinity) in Sprague-Dawley rat at 5 mg/kg, iv measured up to 24 hrs by LC-MS/MS analysis; format: ADME, organism-based; set-up: route intravenous, dose 5 mg/kg, time <=24; details: in vivo
ATTRIBUTE MEASURED: AUC(0-inf) (ng·h/mL)
Your answer should be a plain number; it is taken to be in ng·h/mL.

Name the reported AUC(0-inf) value associated with the compound CC1(C)C(=O)C(C#N)=C[C@]2(C)[C@H]3C(=O)C=C4[C@@H]5C[C@@](C)(C(=O)N6CCN(c7ccc(NC(=O)CCCCCCC(=O)NO)cc7)CC6)CC[C@]5(C)CC[C@@]4(C)[C@]3(C)CC[C@@H]12
3780

====

system: PC-3; assay: Cytotoxicity against human PC-3 cells assessed as reduction in cell viability after 96 hrs by MTT assay; format: functional, cell-based; details: PC-3, 96 h
ATTRIBUTE MEASURED: IC50
Number plus unit, in that order.

CC1(C)[C@@H](O)CC[C@]2(C)[C@H]3C(=O)C=C4[C@@H]5C[C@@](C)(C(=O)N6CCN(c7ccc(NC(=O)CCCCCC(=O)NO)cc7)CC6)CC[C@]5(C)CC[C@@]4(C)[C@]3(C)CC[C@@H]12 : 3.09 µM

Name the reported IC50 value associated with the molecule CC1(C)[C@@H](O)CC[C@]2(C)[C@H]3C(=O)C=C4[C@@H]5C[C@@](C)(C(=O)NCCCC(=O)NO)CC[C@]5(C)CC[C@@]4(C)[C@]3(C)CC[C@@H]12
25.1 µM

Okay, and CC1(C)[C@@H](O)CC[C@]2(C)[C@H]3C(=O)C=C4[C@@H]5C[C@@](C)(C(=O)OCCOc6ccc(NC(=O)CCCCCC(=O)NO)cc6)CC[C@]5(C)CC[C@@]4(C)[C@]3(C)CC[C@@H]12 ?
3.68 µM

====

system: PC-3; test: Cytotoxicity against human PC-3 cells assessed as reduction in cell viability after 96 hrs by MTT assay; format: functional, cell-based; settings: PC-3, 96 h
# reported IC50; entries follow
Your answer should be a plain number; it is taken to be in µM.

As a guide, the following entries are already answered.
CC1(C)[C@@H](O)CC[C@]2(C)[C@H]3C(=O)C=C4[C@@H]5C[C@@](C)(C(=O)N6CCN(c7ccc(NC(=O)CCCCCCC(=O)NO)cc7)CC6)CC[C@]5(C)CC[C@@]4(C)[C@]3(C)CC[C@@H]12 : 2.48
CC1(C)[C@@H](O)CC[C@]2(C)[C@H]3C(=O)C=C4[C@@H]5C[C@@](C)(C(=O)OCCOc6ccc(NC(=O)CCCCC(=O)NO)cc6)CC[C@]5(C)CC[C@@]4(C)[C@]3(C)CC[C@@H]12 : 8.22
CC1(C)[C@@H](O)CC[C@]2(C)[C@H]3C(=O)C=C4[C@@H]5C[C@@](C)(C(=O)OCCCOc6ccc(NC(=O)CCCCCCC(=O)NO)cc6)CC[C@]5(C)CC[C@@]4(C)[C@]3(C)CC[C@@H]12 : 5.37
CC1(C)[C@@H](O)CC[C@]2(C)[C@H]3C(=O)C=C4[C@@H]5C[C@@](C)(C(=O)NCCCCCCC(=O)NO)CC[C@]5(C)CC[C@@]4(C)[C@]3(C)CC[C@@H]12 : 11.8
CC1(C)[C@@H](O)CC[C@]2(C)[C@H]3C(=O)C=C4[C@@H]5C[C@@](C)(C(=O)OCCCOc6ccc(NC(=O)CCCC(=O)NO)cc6)CC[C@]5(C)CC[C@@]4(C)[C@]3(C)CC[C@@H]12 : 4.43

Name the reported IC50 value associated with the molecule CC1(C)[C@@H](O)CC[C@]2(C)[C@H]3C(=O)C=C4[C@@H]5C[C@@](C)(C(=O)N6CCN(c7ccc(NC(=O)CCCCC(=O)NO)cc7)CC6)CC[C@]5(C)CC[C@@]4(C)[C@]3(C)CC[C@@H]12
5.53
